# assayedTarget: ER in T47D cells (Homo sapiens (Human))
# Sequence (P03372 whole entry): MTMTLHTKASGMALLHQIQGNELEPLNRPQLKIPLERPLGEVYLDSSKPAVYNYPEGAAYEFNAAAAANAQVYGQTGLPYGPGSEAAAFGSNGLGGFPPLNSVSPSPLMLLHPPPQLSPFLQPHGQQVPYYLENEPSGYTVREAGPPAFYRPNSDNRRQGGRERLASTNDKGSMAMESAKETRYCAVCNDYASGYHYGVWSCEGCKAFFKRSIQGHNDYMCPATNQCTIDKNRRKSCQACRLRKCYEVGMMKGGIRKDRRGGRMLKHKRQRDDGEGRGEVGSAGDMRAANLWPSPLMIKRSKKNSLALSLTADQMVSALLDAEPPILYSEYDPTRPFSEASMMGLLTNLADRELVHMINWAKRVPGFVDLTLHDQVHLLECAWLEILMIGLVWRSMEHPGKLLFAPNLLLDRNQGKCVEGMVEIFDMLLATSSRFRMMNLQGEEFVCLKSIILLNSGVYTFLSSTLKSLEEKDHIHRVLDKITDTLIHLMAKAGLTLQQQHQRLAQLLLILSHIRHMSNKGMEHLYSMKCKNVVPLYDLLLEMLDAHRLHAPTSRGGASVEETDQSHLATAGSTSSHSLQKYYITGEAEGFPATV
# assayDetails: In-cell Western (ICW) ER degradation assay in T47D cells
# Format: cell-based
# experimentalSetup: maximal ER degradation, 16 hrs treatment, read-out: T47D Dmax
reportedMetric: Dmax

These solved cases illustrate the format of a correct answer.
INSERT INTO measurements (compound, reportedmetric, measuredresult) VALUES
  ('O=C1CC[C@H](N2Cc3c(ccc4c3OC[C@H]3CN(CC5CC6(CCN(c7ncc([C@@H]8c9ccc(O)cc9CC[C@@H]8c8ccccc8)cn7)CC6)C5)CCN43)C2=O)C(=O)N1 (single isomer, unassigned) [Compound A140]', 'Dmax', '> 75%'),
  ('COc1cc(N2CCC3(CC2)C[C@H](CN2CCN4c5ccc6c(c5OC[C@H]4C2)CN([C@H]2CCC(=O)NC2=O)C6=O)CO3)c(F)cc1[C@@H]1c2ccc(O)cc2CC[C@@H]1c1ccccc1 [Compound A174]', 'Dmax', '> 75%'),
  ('COc1cc(N2CCC3(CC2)CC(CN2CCN4c5cc6c(cc5OC[C@@H]4C2)C(=O)N([C@H]2CCC(=O)NC2=O)C6)CO3)ccc1[C@@H]1c2ccc(O)cc2CC[C@@H]1c1ccccc1 (stereo partly drawn) [Compound A57]', 'Dmax', '50 to 75%'),
  ('O=C1CC[C@H](Nc2ccc(C3CCN(C[C@@H]4COC5(CCN(c6ccc([C@H]7c8ccc(O)cc8CC[C@H]7c7ccccc7)cc6)CC5)C4)CC3)cc2)C(=O)N1 (single isomer, unassigned) [Compound A50]', 'Dmax', '50 to 75%'),
  ('COc1cc(N2CCC3(CC2)CC(CN2CCN4c5ccc(C(=O)N[C@H]6CCC(=O)NC6=O)nc5OC[C@H]4C2)C3)c(F)cc1[C@@H]1c2ccc(O)cc2CC[C@@H]1c1ccccc1 [Compound A111]', 'Dmax', '> 75%'),
  ('COc1cc(N2CCC3(CC2)CC(CN2CCN4c5cc6c(cc5OC[C@@H]4C2)C(=O)N([C@H]2CCC(=O)NC2=O)C6)C3)ccc1[C@H]1c2ccc(O)cc2CC[C@H]1c1ccccc1 (single isomer, unassigned) [Compound A11]', 'Dmax', '50 to 75%'),
  ('COc1cc(N2CCC3(CC2)CC(CN2CCC(c4ccc(N[C@H]5CCC(=O)NC5=O)c(F)c4)CC2)C3)ccc1[C@@H]1c2ccc(O)cc2CC[C@@H]1c1ccccc1 (single isomer, unassigned) [Compound A109]', 'Dmax', '50 to 75%'),
  ('COc1cc(N2CCC3(CC2)CC(CN2CCN4c5ccc6c(c5OC[C@H]4C2)CN([C@H]2CCC(=O)NC2=O)C6=O)CO3)ccc1[C@@H]1c2ccc(O)cc2CC[C@@H]1c1ccccc1 (stereo partly drawn) [Compound A53]', 'Dmax', '50 to 75%');

Here is the next item to consider.
Specify the recorded Dmax for COc1cc(N2CCC(CN3CCN4c5ccc6c(c5OCC4C3)CN([C@H]3CCC(=O)NC3=O)C6=O)CC2)c(F)cc1[C@@H]1c2ccc(O)cc2CC[C@@H]1c1ccccc1 (stereo in doubt) [Compound A35] , system: ER in T47D cells (Homo sapiens (Human)).
> 75%
